Measured Ki by item
# assayed system: strychnine insensitive glycine binding site located on the NMDA receptor complex (Rattus norvegicus, UniProt P35439)
# Construct: determined using the procedure of Kishimoto H. et al J. Neurochem 1981, 37, 1015-1024; from tissue
# test description: biochemical
# assay setup: strychnine insensitive glycine binding site; read-out: pKi (converted)
assay endpoint: Ki

molecule	reported value
NC(=O)Cc1ccc(NC(=O)/C=C2\CC(C(=O)O)Nc3cc(Cl)cc(Cl)c32)cc1 (racemic) [Example 16]	6.61 nM
CC(=O)Nc1cccc(NC(=O)/C=C2\CC(C(=O)O)Nc3cc(Cl)cc(Cl)c32)c1 (racemic) [Example 6]	15.8 nM
CC(C)CC(=O)Nc1ccc(NC(=O)/C=C2\CC(C(=O)O)Nc3cc(Cl)cc(Cl)c32)cc1 (racemic) [Example 19]	18.6 nM
O=CNCc1ccc(NC(=O)/C=C2\CC(C(=O)O)Nc3cc(Cl)cc(Cl)c32)cc1 (racemic) [Example 10]	5.01 nM
O=C(/C=C1\CC(C(=O)O)Nc2cc(Cl)cc(Cl)c21)Nc1ccc(CN2CCOCC2)cc1 (racemic) [Example 14]	7.94 nM
CC(C)C(=O)NCCc1ccc(NC(=O)/C=C2\CC(C(=O)O)Nc3cc(Cl)cc(Cl)c32)cc1 (racemic) [Example 17]	12.6 nM
CC(=O)Nc1ccc(NC(=O)/C=C2\CC(C(=O)O)Nc3cc(Cl)cc(Cl)c32)cc1 (racemic) [Example 5]	7.94 nM
CC(C)C(=O)NCc1ccc(NC(=O)/C=C2\CC(C(=O)O)Nc3cc(Cl)cc(Cl)c32)cc1 (racemic) [Example 13]	15.8 nM
CC(=O)NCc1ccc(NC(=O)/C=C2\CC(C(=O)O)Nc3cc(Cl)cc(Cl)c32)cc1 (racemic) [Example 11]	5.01 nM
O=C(/C=C1\CC(C(=O)[O-])Nc2cc(Cl)cc(Cl)c21)Nc1ccccc1.[Na+] (racemic) [Sodium Salt]	6.31 nM
O=C(/C=C1\CC(C(=O)O)Nc2cc(Cl)cc(Cl)c21)Nc1cccc(Cl)c1 (racemic) [Example 7]	39.8 nM
Nc1ccc(NC(=O)/C=C2\CC(C(=O)O)Nc3cc(Cl)cc(Cl)c32)cc1 (racemic) [Example 8]	15.8 nM
CC(C)C(=O)Nc1ccc(NC(=O)/C=C2\CC(C(=O)O)Nc3cc(Cl)cc(Cl)c32)cc1 (racemic) [Example 12]	15.8 nM
CC(=O)NCCc1ccc(NC(=O)/C=C2\CC(C(=O)O)Nc3cc(Cl)cc(Cl)c32)cc1 (racemic) [Example 18]	12.6 nM
O=C(/C=C1\CC(C(=O)O)Nc2cc(Br)cc(Br)c21)Nc1ccccc1 (racemic) [Example 21]	26.3 nM
O=C(O)Cc1ccc(NC(=O)/C=C2\CC(C(=O)O)Nc3cc(Cl)cc(Cl)c32)cc1 (racemic) [Example 15]	19.1 nM
NC(=O)NCc1ccc(NC(=O)/C=C2\CC(C(=O)O)Nc3cc(Cl)cc(Cl)c32)cc1 (racemic) [Example 9]	3.98 nM

###

# assayed system: strychnine insensitive glycine binding site located on the NMDA receptor complex (Rattus norvegicus)
# Construct: determined using the procedure of Kishimoto H. et al J. Neurochem 1981, 37, 1015-1024; from tissue
# test description: biochemical

molecule	unit tag	Ki
O=C(/C=C1\CC(C(=O)[O-])Nc2cc(Cl)ccc21)Nc1ccccc1.[Na+] (racemic) [Example 2, Sodium Salt]	nM	39.8
